Origin of the recorded values: ChEMBL document CHEMBL1201862

Measured EC50, listed per entry for reference.
target: Protein RecA (Mycobacterium tuberculosis); assay: Fluorescence Cell-Free Homogeneous Dose Retest to Identify Inhibitors of RecA-Intein Splicing Activity. [Related pubchem assays (depositor defined):AID2097, AID2223, AID489010, AID492950]; type: functional
Active and inactive are the calls of the source.

[Q] Any idea what EC50 was measured for `O=S(=O)(Nc1c(O)ccc2ccccc12)c1ccccc1` ?
[A] 1.51 µM (active)

[Q] Okay, and `COC(=O)c1c(C)oc2ccc(N(C(=O)c3ccncc3)S(=O)(=O)c3ccc4ccccc4c3)cc12` ?
[A] 4.08 µM (active)

[Q] Okay, and `Cc1nc2ccccc2c2c1C(=O)NC2=O` ?
[A] 3.72 µM (active)

[Q] Okay, and `COc1cc(Cc2nccc3cc(OC)c(OC)cc23)c(S(=O)(=O)O)cc1OC` ?
[A] 85.7 µM (active)

[Q] Okay, and `C/C(=N/NC(=O)Cc1cc(O)[nH]n1)c1ccc([N+](=O)[O-])cc1` ?
[A] 1.38 µM (active)

* * *

molecular target: Protein skinhead-1 (Caenorhabditis elegans, UniProt P34707); type: functional
Sequence (P34707 whole entry): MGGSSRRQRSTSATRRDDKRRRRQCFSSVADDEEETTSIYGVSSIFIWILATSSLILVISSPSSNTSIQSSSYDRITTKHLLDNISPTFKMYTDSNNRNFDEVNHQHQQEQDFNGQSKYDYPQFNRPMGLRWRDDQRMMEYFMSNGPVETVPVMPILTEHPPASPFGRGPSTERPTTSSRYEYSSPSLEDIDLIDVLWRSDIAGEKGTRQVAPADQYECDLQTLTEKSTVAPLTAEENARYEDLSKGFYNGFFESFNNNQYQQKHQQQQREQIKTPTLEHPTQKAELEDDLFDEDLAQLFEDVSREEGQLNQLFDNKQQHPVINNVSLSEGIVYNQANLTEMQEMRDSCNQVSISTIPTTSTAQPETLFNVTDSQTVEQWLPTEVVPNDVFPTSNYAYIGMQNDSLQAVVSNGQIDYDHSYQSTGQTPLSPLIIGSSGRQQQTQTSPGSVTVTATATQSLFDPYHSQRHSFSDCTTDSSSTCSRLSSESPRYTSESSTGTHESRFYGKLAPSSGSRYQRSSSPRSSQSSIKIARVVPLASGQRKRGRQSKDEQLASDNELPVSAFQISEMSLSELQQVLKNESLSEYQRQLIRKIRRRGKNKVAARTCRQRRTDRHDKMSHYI
The source made the active and inactive calls.
Assay endpoint: IC50

Illustrative cases are given below, each with its answer.
Fc1ccc(-c2nc(-c3cccs3)no2)cc1 ... > 100 µM (inactive)
COc1ccc(CN2CCN(Cc3ccco3)CC2)cc1 ... > 100 µM (inactive)
Cc1cnc(C(=O)N(CCCn2ccnc2)C2C(=O)Nc3ccccc3N=C2c2ccccc2)cn1 (centres undefined) ... > 100 µM (inactive)

Now examine the next entry.
[Q] Any idea what IC50 was measured for `Cc1ccc(-c2noc(-c3cccs3)n2)cc1` ?
[A] 18.8 µM (active)

* * *

Target: RNA-binding protein pos-1 (Caenorhabditis elegans, UniProt G5EF15)
Sequence (G5EF15 whole entry): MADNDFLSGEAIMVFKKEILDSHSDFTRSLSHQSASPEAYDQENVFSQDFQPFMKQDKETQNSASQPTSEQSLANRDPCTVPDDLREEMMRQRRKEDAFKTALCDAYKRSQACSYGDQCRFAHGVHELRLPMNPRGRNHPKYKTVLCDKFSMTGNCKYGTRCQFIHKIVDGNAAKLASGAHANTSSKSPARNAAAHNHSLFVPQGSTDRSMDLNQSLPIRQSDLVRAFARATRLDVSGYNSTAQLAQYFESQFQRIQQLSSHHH
Test: disruptors of C. elegans POS-1 RNA interaction – biochemical, fluorescence polarization, dose response (AID 1964);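 also: purified POS-1 fused to maltose binding protein made in E. coli; potency of compounds blocking POS-1 binding to fluorescent RNA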
Activity calls are given as the source filed them.
Measured EC50, listed per entry for reference.

[Q] Any idea what EC50 was measured for `Cc1cccn2c(=O)c3cc(C(=O)NC4CCCC4)c(=N)n(CCc4ccccc4)c3nc12` ?
[A] > 300 µM (not active)

[Q] Okay, and `CCOC(=O)Cn1c2ccc(OC)cc2c2nc3ccccc3nc21` ?
[A] 0.862 µM (inconclusive)

[Q] Okay, and `O=C(O)C(=O)/C(=C\c1ccsc1)c1ccc2ccccc2n1` ?
[A] 27.9 µM (active)

[Q] Okay, and `COc1ccc(NC(=O)/C=C/c2cccc(Br)c2)cn1` ?
[A] 16 µM (active)

[Q] Okay, and `CN1C(=O)C(=Cc2c[nH]c3ccccc23)C(=O)N(C)C1=O` ?
[A] 52.9 µM (active)

[Q] Okay, and `O=c1[nH]n(-c2ncnc3c2cnn3-c2ccccc2)c(=O)c2ccccc12` ?
[A] 11.6 µM (active)
